// reported growth per item
# Tested on: SK-OV-3 ovarian
# Assay Overview: NCI-60 one-dose screen, 48 h (100 = growth as untreated, 0 = no growth, -100 = all killed)
# Measurement Conditions: 10 µM
Compounds without any hit were thinned out: in the full panel of roughly 83,000, 20% have a hit.
Report only the number, with the unit % understood.

Solved cases below.
| Compound | growth [%] |
| --- | --- |
| CCCCCCN(CCCCCC)CC(O)c1ccc2c3c(cccc13)CC2 (stereo not drawn) | 69.9 |
| CC(=O)O[C@]1(C)CC[C@H]2[C@H](CNCCc3ccc(Cl)cc3)C(=O)O[C@@H]2C2=C(C)C(=O)C[C@H]21 | 101 |

Identify growth associated with the compound Cc1cc(N(CCCNc2ccnc3cc(Cl)ccc23)Cc2ccc3c(c2)OCO3)nc(N2CCCCC2)n1
31.3

----------
# System: HS 578T breast
# Assay Overview: NCI-60 one-dose screen, 48 h
# Measurement Conditions: 10 µM
# Protocol: Growth inhibition of the HS 578T human tumor cell line is measured as a screen for anti-cancer activity. Cells are grown in 96 well plates and exposed to the test compound for 48 hours. Compounds are tested at a single concentration, which is 10^-5 M for most compounds. The reported endpoint is percent growth (GI% or GIPRCNT), where numbers from 0 - 100% represent growth inhibition, and numbers from -100% - 0 represent cell death. For example, a value of 40 represents 60% growth inhibition. […]
Compounds without any hit were thinned out: in the full panel of roughly 83,000, 20% have a hit. Calls of active or inactive are those of the source. The calls were made as follows: active = growth percent below 10; inactive = the rest.
// classify into active, inactive

| Compound | Group |
| --- | --- |
| COc1cc(/C=C2\CCCC3=C2N=C2SC=NN2C3c2cc(OC)c(OC)c(OC)c2)cc(OC)c1OC (stereo not given) | inactive |
| COc1ccc(-c2nc(-c3nc4cc(Cl)c(F)cc4[nH]3)c3ccccn23)cc1 | inactive |
| CC(C)=CCc1ccc(O)c(=O)cc1C(C)C | inactive |
| COc1ccc(Nc2cc(C)nc(NCCCNc3ccnc4cc(Cl)ccc34)n2)cc1 | active |
| O=C(Nc1nc2ccccc2s1)Nc1ccc([N+](=O)[O-])cc1Cl | inactive |

Given O=c1cc(-c2ccccc2)[nH]n1-c1nc2ccccc2[nH]1 , state the outcome it received in this test.
inactive

Given Cc1ccc(NC(=O)NC2CCCCC2)cc1 , state the outcome it received in this test.
inactive

Given COc1cc2cc3c(nc2cc1OC)CCN3Cc1ccc(NC(=O)Nc2cc(C(F)(F)F)cc(C(F)(F)F)c2)cc1 , state the outcome it received in this test.
inactive

Given Clc1ccc2c(NCCCNc3nccc(Nc4ccc(Br)cc4)n3)ccnc2c1 , state the outcome it received in this test.
active

Given COc1cc(Cl)cc(-c2nn(-c3cccc(NC(=O)c4ccc(Cl)c(Cl)c4)c3)cc2-c2ccncc2)c1 , state the outcome it received in this test.
inactive

Given O=C1/C(=C\c2ccc(Cl)cc2)CN(C(=S)Nc2ccccc2)C/C1=C\c1ccc(Cl)cc1 , state the outcome it received in this test.
active

Given O=C(N/N=C\c1cc(Cl)ccc1[N+](=O)[O-])c1ccco1 , state the outcome it received in this test.
inactive

Given FC(F)(F)c1ccc(-c2cnc(-n3cc(COCCN4CCCCC4)nn3)nc2NC2CCCCCC2)cc1 , state the outcome it received in this test.
inactive

Given COc1ccc2c(c1)O/C(=C\c1ncc([N+](=O)[O-])n1C)C2=O , state the outcome it received in this test.
active

Given COc1ccc2nc3cc(Cl)ccc3c(NCCNCC(C)O)c2c1 (stereo not given) , state the outcome it received in this test.
inactive

Given c1ccc2c(c1)oc1c3cccnc3ccc21 , state the outcome it received in this test.
inactive

Given Cc1cc(N(CCCNc2ccnc3cc(Cl)ccc23)Cc2cccs2)nc(Cl)n1 , state the outcome it received in this test.
inactive

Given CCOC(=O)C1(CC(C)C)CCOC1=O (stereo not given) , state the outcome it received in this test.
inactive

----------
# System: A498 renal
# Assay Overview: NCI-60 one-dose screen, 48 h (100 = growth as untreated, 0 = no growth, -100 = all killed)
# Measurement Conditions: 10 µM
This is part of a sample that, as a whole, favours compounds with a hit. Of some 83,000 tested, about 20% had one in any assay.
Measured Property: growth (%)
Report only the number, with the unit % understood.

Solved cases below.
| Mol Smiles | Endpoint Result |
| --- | --- |
| Cc1ccc(NC(=O)CSc2nc3ccccc3c(=O)n2CCc2ccccc2)c(C(=O)O)c1 | 87 |
| O=C(Nc1cccc(-n2cc(-c3ccncc3)c(-c3ccc(O)c(Cl)c3)n2)c1)c1ccc(N2CCOCC2)c(C(F)(F)F)c1 | 71.7 |
| Nc1c(C(=O)Nc2ccccc2Cl)sc2nc3c(cc12)C(=O)CCC3 | -10.9 |
| COc1ccc([N+](=O)[O-])c(C(=O)O)c1 | 85.6 |

Okay, next one:
Identify growth associated with the compound COc1cc2nc(Nc3cccc(C(=O)O)c3)nc(N)c2cc1OC
117

----------
# Tested on: UO-31 renal
# Assay Overview: NCI-60 one-dose screen, 48 h
# Measurement Conditions: 10 µM
This is part of a sample that, as a whole, favours compounds with a hit. Of some 83,000 tested, about 20% had one in any assay. Activity calls are given as the source filed them. How the source made its calls: active means growth percent below 10; inactive means the rest.
// classify into label 1 (active), label 0 (inactive)

Previously resolved entries follow.
| Molecule | Group |
| --- | --- |
| Nc1c(C(=O)Nc2cccc(Br)c2)sc2nc3c(cc12)C(O)CCC3 (stereo not given) | label 0 |
| COc1ccc2c(c1)-c1c(c3cc(OC)ccc3n(CCN(C)C)c1=O)C2=O | label 1 |
| COc1ccc(-c2ccc3cc(C(=O)Nc4ccc(O)c(C(=O)/C=C/c5cc(OC)c(OC)c(OC)c5)c4)ccc3c2)cc1 | label 0 |
| O=C1OCC2=C1C(c1cccc(Br)c1)c1cc3c(cc1N2CCO)CCC3 (stereo not given) | label 0 |
| COc1ccc2c(c1)sc1nc(-c3ccccc3)c(-c3cccnc3)n12 | label 0 |
| O=C(O)C(SC(C(=O)O)c1ccccc1)c1ccccc1 (stereo not given) | label 0 |

Query molecule follows.
Given COc1ccc2c(c1)C(=O)c1c-2c(=O)n(CCCN(C)C)c2cc(OC)c(OC)cc12 , state the outcome it received in this test.
label 0

----------
# System: OVCAR-3 ovarian
# Assay Overview: NCI-60 one-dose screen, 48 h
# Measurement Conditions: 10 µM
This is part of a sample that, as a whole, favours compounds with a hit. Of some 83,000 tested, about 20% had one in any assay. Calls of active or inactive are those of the source. The calls were made as follows: active = growth percent below 10; inactive = the rest.
// classify into Yes (active), No (inactive)

| Compound | Group |
| --- | --- |
| COc1ccc2c(c1)sc1nc(-c3ccccc3)c(-c3ccsc3)n12 | Yes |
| Cc1cs/c(=N\NC(=O)c2cc(-c3cc4ccccc4o3)nn2-c2ccccc2)n1-c1ccccc1 | No |

Given CC(C)=NNc1ncnc2c1ncn2C1OC(CO)C(O)C1O (stereo not drawn) , state the outcome it received in this test.
Yes

Given Cn1c([N+](=O)[O-])cnc1/C=C1\Oc2ccc(Cl)cc2C1=O , state the outcome it received in this test.
Yes

Given COc1ccc(NC2=NC(C)(CO)CS2)cc1 (stereo not drawn) , state the outcome it received in this test.
No

Given NC(=O)CC1(c2ccccc2)CCCCC1 , state the outcome it received in this test.
No

Given Nc1c(C(=O)Nc2ccccc2)sc2nc3c(cc12)CCCC3 , state the outcome it received in this test.
Yes

Given CN(C)CCNC(=O)c1cccn2c(=O)c3cc4ccccc4cc3nc12 , state the outcome it received in this test.
Yes

----------
# System: NCI/ADR-RES ovarian
# Assay Overview: NCI-60 one-dose screen, 48 h (100 = growth as untreated, 0 = no growth, -100 = all killed)
# Measurement Conditions: 10 µM
The panel holds about 83,000 compounds, 20% with a hit somewhere; the sample as a whole holds those more often.
# strict inequality: growth < 40% yields rule met, everything else yields rule not met

| Molecule | Measurement Target | Group |
| --- | --- | --- |
| COc1cc(-c2nnc(-c3c(-c4ccc(F)cc4)nc4ccccn34)o2)cc(OC)c1OC | NCI/ADR-RES ovarian | rule not met |
| CC(C)C[C@H](NC(=O)[C@H](Cc1cccc2ccccc12)NS(=O)(=O)c1cccc2cccnc12)B(O)O | NCI/ADR-RES ovarian | rule met |
| C#Cc1ccc(-n2c(/C=C/c3ccc(Cl)c(F)c3)nc3ncccc3c2=O)cc1 | NCI/ADR-RES ovarian | rule met |
| Clc1ccccc1N=Cc1ccc2c(c1)OCO2 | NCI/ADR-RES ovarian | rule not met |
| COc1ccc(/C=C2/CN(C(=O)c3ccccc3F)C/C(=C\c3ccc(OC)cc3)C2=O)cc1 | NCI/ADR-RES ovarian | rule not met |
| COc1ccc(-c2nc3ncccn3c2-c2nnc(-c3ccsc3C)o2)cc1 | NCI/ADR-RES ovarian | rule not met |
| CCCCCCCCCCCC[n+]1ccc(C(N)=O)cc1 | NCI/ADR-RES ovarian | rule not met |
| COc1ccc(-c2cc(/C=C3\C(=O)Nc4ccc(OC)cc43)[nH]n2)cc1 | NCI/ADR-RES ovarian | rule met |
| COc1ccc(Cn2c(C(N)=O)cc3c2-c2nc(N)ncc2CCC3)cc1 | NCI/ADR-RES ovarian | rule not met |
| O=C1NC(=O)N(Cc2ccccc2)CC1Br (stereo not given) | NCI/ADR-RES ovarian | rule not met |

Please let me know if COc1ccc(-c2nc3ncccn3c2-c2nnc(-c3ccc(F)cc3)o2)cc1 shows growth below 40%.
rule not met

Please let me know if CCOC(=O)N1C=CC2C=CC1C1C=CC=CC2N1C(=O)OCC (stereo not given) shows growth below 40%.
rule not met

Please let me know if COc1cc(-c2nn3c(/C=C4/C(=O)Nc5ccccc54)c(-c4ccc(C)cc4)nc3s2)cc(OC)c1OC shows growth below 40%.
rule not met

Please let me know if O=C(CCCCC(=O)Nc1ccc2c(c1)/C(=C/c1ccc[nH]1)C(=O)N2)NO shows growth below 40%.
rule not met

Please let me know if N=c1c2c(-c3ccccc3)c(-c3ccccc3)n(Cc3ccccc3)c2ncn1CCCO shows growth below 40%.
rule not met
